assay: HTS Assay for Allosteric Antagonists of the Human D2 Dopamine Receptor: Hit Validation in HTRF (AID 624455); conditions: Cells stably expressing D1 dopamine receptor, inhibition mode; series mostly up to 46.1 µM;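 note: stable D1 dopamine receptor cell line scored for blocking the D1 response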
Records with an inconclusive call do not appear. Active and inactive are the calls of the source. Calls come from the whole dose curve; as a rule, active = well fitted inhibition curve with a large enough effect; inconclusive = small, poorly fitted or top-dose-only effect; inactive = no such curve, though single readings can be large or run the other way.
Valid outcomes are listed here; reply with one: 1.0 for active, 0.0 for inactive

Take a look at these entries with their results.
compound | label_class
CN(C(=O)Cc1ccc(Cl)c(Cl)c1)C(CN1CCCC1)c1cccc(OCC(=O)O)c1 (stereo not given) | 0.0
C/C(O)=C(\C#N)C(=O)Nc1cc(Br)ccc1Br | 0.0
Ic1ccccc1CNC1C2CCN(CC2)C1C(c1ccccc1)c1ccccc1 (stereo not given) | 0.0
CC(=O)c1c(O)c(C)c(O)c(Cc2c(O)c3c(c(C(=O)/C=C/c4ccccc4)c2O)OC(C)(C)C=C3)c1O | 0.0
C[N+]1(C)CCc2cc3c(cc2[C@H]1[C@@H]1OC(=O)c2c1ccc1c2OCO1)OCO3 | 0.0
O=C1C=CC(=O)C=C1 | 0.0
NCC(CP(=O)(O)O)c1ccc(Cl)cc1 (stereo not given) | 0.0
C[C@H](Cc1ccc2c(c1)OC(C(=O)O)(C(=O)O)O2)NC[C@H](O)c1cccc(Cl)c1 | 0.0
NC(Cc1cc(O)c(O)cc1O)C(=O)O (stereo not given) | 0.0
CC12NC(Cc3ccccc31)c1ccccc12 (stereo not given) | 0.0

What is the recorded call for this compound in the test? COc1ccc2c(c1)/C(=C/c1cnc[nH]1)C(=O)N2
0.0

* * *

test system: Tov112D; experiment: Primary qHTS to identify gynecologic anti-cancer compounds using libraries of approved drugs and bioactive compounds (AID 1345084); settings: Gynecologic cancer cell panel viability, ATPlite luminescence, 48 h; series mostly up to 57.5 µM; note: nearly all actives have a fitted effect of over 55% in size
Records with an inconclusive call do not appear. Active and inactive are the calls of the source. Calls follow the shape of the dose curve; as a rule, active = well fitted cell-killing curve with a large enough effect; inconclusive = small, poorly fitted or top-dose-only effect, or effect the other way; inactive = flat fitted curve, though single readings scatter.
Valid outcomes are listed here; reply with one: True (active), False (inactive)

Take a look at these entries with their results.
molecule | label_class
CC(=O)OC1CC(O)C2(C)C(CC(OC(C)=O)C3(C)C2CCC2(C)C(c4ccoc4)C(=O)C4OC423)C1(C)C (configuration not stated) | False
COc1cc(C(=O)O[C@H]2[C@@H]3C=CO[C@@H](O[C@@H]4O[C@H](CO)[C@@H](O)[C@H](O)[C@H]4O)[C@@H]3[C@@]3(CO)O[C@@H]23)ccc1O | False
CN1C(=O)N(c2ccc(C#N)c(C(F)(F)F)c2)C(=O)[C@]1(CO)c1ccccc1 | False

What is the recorded call for this molecule in the test? C=C[C@H]1[C@H](O[C@@H]2O[C@H](CO)[C@@H](O)[C@H](O)[C@H]2O)OC=C2C(=O)OCC[C@H]21
False

What is the recorded call for this molecule in the test? O=C1C[C@@H]2OCC=C3CN4CC[C@]56c7ccccc7N1[C@H]5[C@H]2[C@H]3C[C@H]46
False

What is the recorded call for this molecule in the test? COC1CC(OC2CCC3(C)C(CCC4C3CCC3(C)C(C5=CC(=O)OC5)C(OC(C)=O)CC43O)C2)OC(C)C1OC1OC(CO)C(O)C(O)C1O (configuration not stated)
True

What is the recorded call for this molecule in the test? COC1C(O)C(C)OC(OC2C(CO)O[C@@H](O[C@@H]3CC4CCC5C(CC[C@]6(C)[C@@H](C7=CC(=O)OC7)CC[C@]56O)[C@@]4(C)[C@H](O)C3)C(O)C2O)C1O (some centres not stated)
True

* * *

test system: CP286; experiment: qHTS profiling for inhibitors of Plasmodium falciparum proliferation (AID 504749); note: nearly all actives have a fitted effect of over 60% in size; settings: P. falciparum in erythrocytes, SYBR Green DNA, 72 h; series mostly up to 28.7 µM
Results filed as inconclusive are left out. Active and inactive are the calls of the source. Calls come from the whole dose curve; as a rule, active = well fitted inhibition curve with a large enough effect; inconclusive = small, poorly fitted or top-dose-only effect; inactive = flat fitted curve, though single readings scatter.
Valid outcomes are listed here; reply with one: yes (1) (active), no (0) (inactive)

Take a look at these entries with their results.
compound | label_class
CNC(=O)Oc1ccccc1C(=O)Nc1ccccc1 | no (0)
N#CC(C#N)=Cc1cc(O)c(O)c(O)c1 | yes (1)
CC(=O)OC1CN2CCC1CC2 (stereo not drawn) | no (0)
ClCC1CO1 (stereo not drawn) | no (0)
C=CCN(C1=NCCN1)c1c(Cl)cccc1Cl | no (0)

What is the recorded call for this compound in the test? CC(C)(O)C1C2OC(=O)C1C1(O)CC3OC34C(=O)OC2C14C (stereo not drawn)
no (0)

What is the recorded call for this compound in the test? O=C1CN(O)C(c2ccccc2)=c2cc(Cl)ccc2=N1
no (0)

What is the recorded call for this compound in the test? O=C(CS(=O)C(c1ccccc1)c1ccccc1)NO (stereo not drawn)
no (0)

What is the recorded call for this compound in the test? C=CCN1CC[C@]23c4c5ccc(O)c4O[C@H]2[C@@H](O)C=C[C@H]3[C@H]1C5
no (0)

What is the recorded call for this compound in the test? CCCC(C)C1(CC)C(=O)NC(=O)NC1=O (stereo not drawn)
no (0)

What is the recorded call for this compound in the test? CCC(=O)O[C@@](Cc1ccccc1)(c1ccccc1)[C@@H](C)CN(C)C
no (0)

What is the recorded call for this compound in the test? O=P(O)(O)C(Cl)(Cl)P(=O)(O)O
no (0)

What is the recorded call for this compound in the test? CC(C)Nc1ccc(Nc2ccccc2)cc1
yes (1)

* * *

experiment: qHTS for differential inhibitors of proliferation of Plasmodium falciparum line W2 (AID 1883); settings: Plasmodium falciparum W2 proliferation inhibition; series mostly up to 28.7 µM;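 note: parasites grown with compound for 72 h before lysis and staining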
Records with an inconclusive call do not appear. Calls of active or inactive are those of the source. The call rests on the fitted dose curve; in most records, active means well fitted curve in the direction sought with a large enough effect; inconclusive means small, poorly fitted or top-dose-only effect, or another doubt; inactive means no such curve, though single readings can be large or run the other way.
Valid outcomes are listed here; reply with one: label 1 for active, label 0 for inactive

Take a look at these entries with their results.
molecule | label_class
O=[N+]([O-])c1cc(O)c(O)c([N+](=O)[O-])c1 | label 0
NC(C(=O)O)c1cc(=O)[nH]o1 (centres undefined) | label 0
CCS(=O)(=O)Nc1cccc(C(=C2CCCCC2)c2cnc[nH]2)c1 | label 1

Let us examine a further case.
What is the recorded call for this molecule in the test? COc1ccc2[nH]cc(CCN)c2c1
label 0

* * *

experiment: qHTS for Inhibitors of the Functional Ribonucleoprotein Complex (vRNP) of Lymphocytic Choriomeningitis Arenaviruses (LCMV): Viability assay - alamar blue signal for LCMV Primary Screen (AID 1347085); settings: alamar blue viability counter-screen, LCMV vRNP screen cells; series mostly up to 57.5 µM; note: nearly all actives have a fitted effect of over 80% in size
Records with an inconclusive call do not appear. The source made the active and inactive calls. Calls follow the shape of the full dose curve; tested in HEK293 reporter line.
endpoint_name: outcome

Some compounds with recorded outcome:
compound | outcome
N[C@@H](Cn1oc(=O)[nH]c1=O)C(=O)O | inactive
CC(N)Cc1c[nH]c2ccc(O)cc12 (stereo not given) | inactive
CC(=O)OCC1=C(C(=O)O)N2C(=O)[C@@H](NC(=O)CCC[C@@H](N)C(=O)O)[C@H]2SC1 | inactive
Cc1cc([C@@H]2CCCN2C)on1 | inactive
CCCN(CCC)C1CCc2cccc(O)c2C1 (stereo not given) | inactive

For this compound ( N#C/C(=C/c1ccc(O)c(O)c1)C(N)=S ), measured outcome is inactive

For this compound ( CCCN(CCC)[C@@H]1CCc2cccc(O)c2C1 ), measured outcome is inactive

For this compound ( CC1=C2C[C@H]3[C@@H](CC=C4C[C@@H](O)CC[C@@]43C)[C@@H]2CC[C@]12O[C@@H]1C[C@H](C)CN[C@H]1[C@H]2C ), measured outcome is inactive

For this compound ( COC1=CC=C2[C@H]3Cc4ccc(OC)c5c4[C@@]2(CCN3C)[C@H]1O5 ), measured outcome is inactive

For this compound ( CCN1C[C@@]2(COC)C3[C@@H](OC)C4[C@@H]1C3([C@@H]1C[C@]3(O)[C@H](OC(=O)c5ccccc5)[C@@H]1[C@]4(OC(C)=O)[C@@H](O)[C@@H]3OC)[C@H](OC)C[C@H]2O ), measured outcome is inactive

* * *

Target: Parathyroid hormone/parathyroid hormone-related peptide receptor (Homo sapiens) (UniProt Q03431)
Sequence (Q03431 whole entry, looked up): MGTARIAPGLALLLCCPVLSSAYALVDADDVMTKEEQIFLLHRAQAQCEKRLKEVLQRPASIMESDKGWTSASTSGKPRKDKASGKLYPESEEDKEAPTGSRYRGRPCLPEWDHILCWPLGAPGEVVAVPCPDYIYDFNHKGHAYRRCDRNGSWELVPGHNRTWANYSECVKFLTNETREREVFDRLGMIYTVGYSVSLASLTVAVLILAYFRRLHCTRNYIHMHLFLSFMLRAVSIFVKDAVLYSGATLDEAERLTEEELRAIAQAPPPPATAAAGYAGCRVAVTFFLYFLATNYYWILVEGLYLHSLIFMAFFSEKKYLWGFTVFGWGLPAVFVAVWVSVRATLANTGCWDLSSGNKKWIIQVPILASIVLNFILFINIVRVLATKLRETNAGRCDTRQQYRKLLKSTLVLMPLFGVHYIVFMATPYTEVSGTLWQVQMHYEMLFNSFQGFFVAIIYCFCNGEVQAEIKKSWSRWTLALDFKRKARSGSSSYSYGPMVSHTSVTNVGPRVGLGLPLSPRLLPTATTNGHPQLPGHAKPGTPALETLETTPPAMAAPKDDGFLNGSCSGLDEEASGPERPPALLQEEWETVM
Test: qHTS for PTHR1 Agonists: Optimization Screen against the NCGC LOPAC library (AID 1347079);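 note: GloSensor cAMP luminescence in HEK-293 GP2 cells expressing human PTHR1 with IBMX; 0% is about no effect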
Settings: HEK293 GP2 PTHR1 GloSensor cAMP luminescence, 1 h; series mostly up to 57.1 µM
Source text: The goal of the proposed studies is to discover new compounds that act as potent agonists on the parathyroid hormone receptor type-1 (PTHR1). […] We performed an optimization assay of the quantitative high-throughput screening (qHTS) for the parathyroid hormone receptor type-1 (PTHR1) against the NCGC LOPAC library collection of […] compounds using a unique HEK-293-derived cell line (GP2) that expresses the PTHR1 and a GloSensor cAMP reporter construct. […]
Active and inactive are the calls of the source. Calls come from the whole dose curve; as a rule, active = well fitted activation curve with a large enough effect; inconclusive = small, poorly fitted or top-dose-only effect; inactive = no such curve, though single readings can be large or run the other way.
endpoint_name: outcome

Some molecules with recorded outcome:
molecule | observed_result
CN1CC[C@@]2(C)c3cc(OC(=O)Nc4ccccc4)ccc3N(C)[C@@H]12 | inactive
CCCN(CCC)CCc1c[nH]c2ccc(C(N)=O)cc12 | inactive
CCCN(CCC)CCc1ccc(O)c(O)c1 | inactive
CC12NC(Cc3ccccc31)c1ccccc12 (configuration not stated) | inactive
NCCc1ccc(S(=O)(=O)F)cc1 | inactive

For this molecule ( CCCCCCCCCCCCCC(=O)O[C@@H]1[C@@H](C)[C@@]2(O)[C@@H](C=C(CO)C[C@@]3(O)C(=O)C(C)=C[C@@H]23)C2C(C)(C)[C@@]21OC(C)=O (some centres not stated) ), measured outcome is inactive

For this molecule ( NCCc1c[nH]c2ccc(C(N)=O)cc12 ), measured outcome is inactive
